- Assay target: GABA-A receptor; anion channel (Rattus norvegicus) (UniProt O09028+P15431+P18506+P18508+P19969+P20236+P23574+P23576+P28471+P28473+P30191+P62813+P63079+P63138+Q91ZM7+Q9ES14)
- Test summary: In vitro displacement of [3H]flunitrazepam binding to cortical membranes at 5e-5M concentration
Property name: Control (%)

Compound: O=C(Cn1ccnc1)c1ccc2ccc3ccccc3c2c1
Control [%]: 123

Compound: O=C(Cn1ccnc1)c1cc2ccccc2o1
Control [%]: 99.1

Compound: O=C(Cn1ccnc1)c1ccc2ccccc2c1
Control [%]: 102

Compound: O=C(Cn1ccnc1)c1ccc2c(ccc3ccccc32)c1
Control [%]: 128
